From: patent US20240117334A1

Molecular target: Human Factor B (human) (UniProt P00751)
Sequence (P00751 26-764 limits assumed): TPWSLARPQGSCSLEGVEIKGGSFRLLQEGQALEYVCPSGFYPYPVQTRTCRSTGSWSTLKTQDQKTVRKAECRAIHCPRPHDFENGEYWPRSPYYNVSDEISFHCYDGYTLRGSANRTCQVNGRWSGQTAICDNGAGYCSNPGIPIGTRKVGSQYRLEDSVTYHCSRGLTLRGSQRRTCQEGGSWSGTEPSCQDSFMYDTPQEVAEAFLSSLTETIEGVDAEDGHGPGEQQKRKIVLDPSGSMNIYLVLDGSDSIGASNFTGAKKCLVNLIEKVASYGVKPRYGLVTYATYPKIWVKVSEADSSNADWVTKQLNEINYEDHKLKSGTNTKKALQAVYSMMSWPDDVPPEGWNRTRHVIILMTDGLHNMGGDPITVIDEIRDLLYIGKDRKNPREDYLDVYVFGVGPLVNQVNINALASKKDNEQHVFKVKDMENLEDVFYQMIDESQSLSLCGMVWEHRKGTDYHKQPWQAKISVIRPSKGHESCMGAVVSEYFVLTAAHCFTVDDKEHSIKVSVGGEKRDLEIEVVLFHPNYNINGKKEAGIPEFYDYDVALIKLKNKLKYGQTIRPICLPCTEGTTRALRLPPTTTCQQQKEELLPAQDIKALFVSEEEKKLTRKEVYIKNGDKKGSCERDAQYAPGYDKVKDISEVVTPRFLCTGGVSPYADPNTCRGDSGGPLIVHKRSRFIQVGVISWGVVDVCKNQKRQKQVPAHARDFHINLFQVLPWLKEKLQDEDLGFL
Assay: cell-based or functional assay
endpointName: fB Cleavage EC50 (µM)
Only the number, expressed in µM, is required.

Here are 2 binders together with their reported answers.
chymase C22S/F41I/L99H/G151K/F173Y/Y215K/R217G/A226R (enzyme) IIGGTESKPHSRPYMAYLEIVTSNGPSKICGGFLIRRNFVLTAAHCAGRSITVTLGAHNITEEEDTWQKLEVIKQFRHPKYNTSTHHHDIMLLKLKEKASLTLAVGTLPFPSQFNFVPPGRMCRVAGWGRTGVLKPKSDTLQEVKLRLMDPQACSHYRDFDHNLQLCVGNPRKTKSAFKGDSGGPLLCAGVAQGIVSKGGSDAKPPRVFTRISHYRPWINQILQAN
7.77
chymase C22S/F41V/L99H/F173Y/Y215K/A226R (enzyme) IIGGTESKPHSRPYMAYLEIVTSNGPSKVCGGFLIRRNFVLTAAHCAGRSITVTLGAHNITEEEDTWQKLEVIKQFRHPKYNTSTHHHDIMLLKLKEKASLTLAVGTLPFPSQFNFVPPGRMCRVAGWGRTGVLKPGSDTLQEVKLRLMDPQACSHYRDFDHNLQLCVGNPRKTKSAFKGDSGGPLLCAGVAQGIVSKGRSDAKPPRVFTRISHYRPWINQILQAN
6.06

*Q* Which fB Cleavage EC50 reading was recorded for the binder chymase C22S/P38Q/K40A/F41T/L99Y/V138I/F173S/D175H/A190S/V213A/S218I/A226R (enzyme) IIGGTESKPHSRPYMAYLEIVTSNGQSATCGGFLIRRNFVLTAAHCAGRSITVTLGAHNITEEEDTWQKLEVIKQFRHPKYNTSTYHHDIMLLKLKEKASLTLAVGTLPFPSQFNFVPPGRMCRIAGWGRTGVLKPGSDTLQEVKLRLMDPQACSHSRHFDHNLQLCVGNPRKTKSSFKGDSGGPLLCAGVAQGIASYGRIDAKPPRVFTRISHYRPWINQILQAN ?
*A* 3.13

*Q* Also chymase C22S/K40M/F41K/L99N/F173Y/D175R/S218T/A226R (enzyme) IIGGTESKPHSRPYMAYLEIVTSNGPSMKCGGFLIRRNFVLTAAHCAGRSITVTLGAHNITEEEDTWQKLEVIKQFRHPKYNTSTNHHDIMLLKLKEKASLTLAVGTLPFPSQFNFVPPGRMCRVAGWGRTGVLKPGSDTLQEVKLRLMDPQACSHYRRFDHNLQLCVGNPRKTKSAFKGDSGGPLLCAGVAQGIVSYGRTDAKPPRVFTRISHYRPWINQILQAN , if possible.
*A* 0.216

*Q* Also chymase C22S/P38Q/K40M/F41R/L99Q/V138I/F173Y/D175A/A190S/V213A/S218T/A226R (enzyme) IIGGTESKPHSRPYMAYLEIVTSNGQSMRCGGFLIRRNFVLTAAHCAGRSITVTLGAHNITEEEDTWQKLEVIKQFRHPKYNTSTQHHDIMLLKLKEKASLTLAVGTLPFPSQFNFVPPGRMCRIAGWGRTGVLKPGSDTLQEVKLRLMDPQACSHYRAFDHNLQLCVGNPRKTKSSFKGDSGGPLLCAGVAQGIASYGRTDAKPPRVFTRISHYRPWINQILQAN , if possible.
*A* 0.724
